src = the supplement of paper PMC10065799

molecular target: Grb2 SH2 (UniProt P62993); experiment: SH2 binding enrichment of the phosphorylated peptide, bacterial display (enrichment ratio); higher = better substrate or ligand; peptides without Tyr show the background
Sequence (P62993 whole entry, looked up): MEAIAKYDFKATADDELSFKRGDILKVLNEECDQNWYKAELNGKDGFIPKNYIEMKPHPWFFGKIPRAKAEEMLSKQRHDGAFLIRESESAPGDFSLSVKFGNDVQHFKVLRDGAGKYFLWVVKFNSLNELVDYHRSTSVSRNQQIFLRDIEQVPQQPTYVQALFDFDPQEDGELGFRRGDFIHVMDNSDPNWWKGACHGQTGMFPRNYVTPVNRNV
Measured Quantity: SH2 binding enrichment
One number for each entry.

Take a look at these entries with their results.
GKVFIYHGSSL [ITGA7_Y458]
0.996
MENFIYESMQY [CYP19A1_Y361_R365Q]
0.914
GMTLSYLFWEP [NDUFS8_Y74_R77W]
0.984
PSRKDYETFQS [CTNND2_Y1154_P1159S_YF]
0.76
LRVKMYNFLRS [ADGRG7_Y760]
1.24

Give SH2 binding enrichment for each of the items listed below.
1. LAVPLYKNGVK [CPS1_Y1069]
2. RQRTAYFSLDT [CDH1_Y68]
3. GAVGNYSRGLA [MGMT_Y158_G160R]
4. SIKGKYVTALY [KCNH2_Y611_D609G]
5. EPTPSYEVGQR [TSC2_Y1788_G1787S]
6. SSWKLYPRMLR [HAO1_Y50_R46S]
7. FRQLQYCPSVE [CTNND2_Y508_YF]
8. KTKIGYSPLHQ [ANK1_Y735_L733I]

1. 1.12
2. 0.928
3. 0.933
4. 0.826
5. 0.827
6. 0.904
7. 0.876
8. 0.903

List reported SH2 binding enrichment for each of these sequences:
1. QSKGIYFVQLE [MGAT4B_Y262_YF]
2. SVESPYGSVTF [NDRG2_Y47_T45S]
3. DLQDENDFKCK [STAT1_Y170_Y170N]

1. 0.96
2. 0.689
3. 0.897

###

molecular target: MERTK (UniProt Q12866); test: phosphorylation enrichment, bacterial display (enrichment ratio); higher = better substrate or ligand; peptides without Tyr show the background
Sequence (Q12866 whole entry, looked up): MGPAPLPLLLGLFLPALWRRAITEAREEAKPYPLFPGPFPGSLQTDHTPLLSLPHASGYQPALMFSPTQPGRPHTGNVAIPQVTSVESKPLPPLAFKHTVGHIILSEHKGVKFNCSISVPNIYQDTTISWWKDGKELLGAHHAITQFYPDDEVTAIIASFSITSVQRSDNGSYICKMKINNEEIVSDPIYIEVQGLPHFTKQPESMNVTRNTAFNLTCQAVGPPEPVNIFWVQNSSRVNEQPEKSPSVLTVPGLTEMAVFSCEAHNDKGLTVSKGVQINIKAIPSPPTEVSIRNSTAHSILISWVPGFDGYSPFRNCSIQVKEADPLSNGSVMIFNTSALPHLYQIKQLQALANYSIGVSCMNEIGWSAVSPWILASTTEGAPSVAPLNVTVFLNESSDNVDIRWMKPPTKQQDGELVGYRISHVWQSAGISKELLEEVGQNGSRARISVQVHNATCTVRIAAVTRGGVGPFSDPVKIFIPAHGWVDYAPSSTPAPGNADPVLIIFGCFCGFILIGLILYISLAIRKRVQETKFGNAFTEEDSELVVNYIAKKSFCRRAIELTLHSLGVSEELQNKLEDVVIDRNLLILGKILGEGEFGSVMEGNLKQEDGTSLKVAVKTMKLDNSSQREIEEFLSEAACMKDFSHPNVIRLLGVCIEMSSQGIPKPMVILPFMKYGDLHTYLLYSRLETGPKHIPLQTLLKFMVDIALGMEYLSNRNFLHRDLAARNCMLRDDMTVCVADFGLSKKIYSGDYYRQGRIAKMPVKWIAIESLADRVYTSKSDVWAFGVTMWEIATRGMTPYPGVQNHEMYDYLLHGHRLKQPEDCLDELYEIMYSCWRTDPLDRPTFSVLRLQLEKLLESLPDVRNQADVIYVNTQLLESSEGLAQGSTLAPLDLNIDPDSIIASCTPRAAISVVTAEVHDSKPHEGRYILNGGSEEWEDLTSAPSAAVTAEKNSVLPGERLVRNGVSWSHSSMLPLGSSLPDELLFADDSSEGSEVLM
We use 1 as the dividing line for phosphorylation enrichment: on or above the line is true, below is false.

Take a look at these entries with their results.
FSMGCYEFSLG [HMGCL_Y198_I200F_YF]
false
PVPKTYDMLKA [PKP2_Y108]
false
EWQQIYTFDSG [JUP_Y20_T19I_YF]
true
PSRKDYETFQS [CTNND2_Y1154_P1159S_YF]
false
CYVYYYSYLLK [PTEN_Y178_R173C]
true

Would you say PFTRNYFVWAV [CYBA_Y87_R90W_YF] shows phosphorylation enrichment at minimum 1?
true

// inclusive: phosphorylation enrichment at least 1? input: ERTIEYLEEVV [HADHA_Y239_A244V]
false

API: above_or_equal(metric=phosphorylation enrichment, cutoff=1) for item DKANRYFSPNV [PTEN_Y336_F341V]
false

Does phosphorylation enrichment meet or surpass 1 for QSKGIYFVQLE [MGAT4B_Y262_YF] ?
true

Could you tell me if the measured phosphorylation enrichment of TKQLTYEEQFL [PIK3C3_Y310_D314Y_YF] reaches 1 or more?
false

Form field: phosphorylation enrichment at least 1? Entry: RYMELYDLNRD [BBS2_Y648]
true

Record GKTQQYDCKWY [BCR_Y751] ; criterion: phosphorylation enrichment no lower than 1. Met?
false

Evaluate RLLVVYPWTRR [HBB_Y36_Q40R] : phosphorylation enrichment at minimum 1?
false

Dear colleague, could you confirm whether DYLEKYYKFGS [NNMT_Y24] has phosphorylation enrichment at or above 1?
false

###

target: Fes (UniProt P07332); experiment: phosphorylation enrichment, bacterial display (enrichment ratio); higher = better substrate or ligand; peptides without Tyr show the background
Sequence (P07332 whole entry, looked up): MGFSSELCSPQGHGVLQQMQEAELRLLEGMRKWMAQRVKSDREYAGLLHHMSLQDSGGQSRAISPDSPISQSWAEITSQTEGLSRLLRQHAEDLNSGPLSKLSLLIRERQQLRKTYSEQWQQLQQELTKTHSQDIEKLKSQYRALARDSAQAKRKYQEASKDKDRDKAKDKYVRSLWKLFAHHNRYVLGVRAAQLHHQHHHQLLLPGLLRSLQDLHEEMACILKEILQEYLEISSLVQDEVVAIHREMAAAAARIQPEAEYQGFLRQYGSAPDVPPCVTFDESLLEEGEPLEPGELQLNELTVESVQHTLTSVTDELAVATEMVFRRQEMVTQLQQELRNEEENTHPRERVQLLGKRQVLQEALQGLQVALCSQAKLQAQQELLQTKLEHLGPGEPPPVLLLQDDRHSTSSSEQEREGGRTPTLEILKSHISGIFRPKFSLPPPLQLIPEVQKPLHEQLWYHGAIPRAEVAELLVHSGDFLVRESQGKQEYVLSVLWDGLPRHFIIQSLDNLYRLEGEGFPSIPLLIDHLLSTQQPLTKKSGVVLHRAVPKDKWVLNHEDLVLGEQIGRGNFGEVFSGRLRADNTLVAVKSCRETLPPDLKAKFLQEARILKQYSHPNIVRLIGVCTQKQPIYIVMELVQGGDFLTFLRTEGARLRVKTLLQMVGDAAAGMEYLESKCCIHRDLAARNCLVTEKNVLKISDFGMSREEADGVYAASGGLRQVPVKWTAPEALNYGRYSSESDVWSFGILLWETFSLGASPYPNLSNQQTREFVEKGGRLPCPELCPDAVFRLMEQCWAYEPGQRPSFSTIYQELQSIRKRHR
Would you kindly list phosphorylation enrichment for each of these sequences?
One number for each entry.

Below, 2 sequences whose answers are already recorded.
CEETFYTMKVN [MASP2_Y401]
1.4
EASEQYLTKAS [NRCAM_Y739]
0.802

Give me phosphorylation enrichment for each of these sequences, listed below.
1. GGYTCYCDGKK [PROS1_Y266]
2. SLHPGYNFRYA [P2RX7_Y291_Y288H]

1: 1.38; 2: 0.949

Answer for every listed entry: what is its phosphorylation enrichment? The entries follow.
1. QSKGIYFVQLE [MGAT4B_Y262_YF]
2. LSIQCYLRASD [HMGCS2_Y262_L266S]
3. RASGIYFVPKG [APBB1IP_Y340_YF]
4. RRNSPYSQTMK [TET2_Y819]
5. QITQVYGFYHE [PPP2CA_Y127_D131H]

1.71
4.92
1.2
1.14
1.07

Required: phosphorylation enrichment, one value per sequence below.
1. ETLLYYGYRRS [POR_Y564_C566Y]
2. PSPMPYASCQM [FOXL2_Y215]
3. RNAAEYPLSSG [ABL1_Y139_L140P]
4. AFGEVYEGQVS [ALK_Y1131]
5. TLNFCYQQVKS [PTK2_Y148_F147C]

1. 0.806
2. 1.07
3. 0.898
4. 1.11
5. 1.28

###

target: FGFR1 (UniProt P11362); test: phosphorylation enrichment, bacterial display (enrichment ratio); higher = better substrate or ligand; peptides without Tyr show the background
Sequence (P11362 whole entry, looked up): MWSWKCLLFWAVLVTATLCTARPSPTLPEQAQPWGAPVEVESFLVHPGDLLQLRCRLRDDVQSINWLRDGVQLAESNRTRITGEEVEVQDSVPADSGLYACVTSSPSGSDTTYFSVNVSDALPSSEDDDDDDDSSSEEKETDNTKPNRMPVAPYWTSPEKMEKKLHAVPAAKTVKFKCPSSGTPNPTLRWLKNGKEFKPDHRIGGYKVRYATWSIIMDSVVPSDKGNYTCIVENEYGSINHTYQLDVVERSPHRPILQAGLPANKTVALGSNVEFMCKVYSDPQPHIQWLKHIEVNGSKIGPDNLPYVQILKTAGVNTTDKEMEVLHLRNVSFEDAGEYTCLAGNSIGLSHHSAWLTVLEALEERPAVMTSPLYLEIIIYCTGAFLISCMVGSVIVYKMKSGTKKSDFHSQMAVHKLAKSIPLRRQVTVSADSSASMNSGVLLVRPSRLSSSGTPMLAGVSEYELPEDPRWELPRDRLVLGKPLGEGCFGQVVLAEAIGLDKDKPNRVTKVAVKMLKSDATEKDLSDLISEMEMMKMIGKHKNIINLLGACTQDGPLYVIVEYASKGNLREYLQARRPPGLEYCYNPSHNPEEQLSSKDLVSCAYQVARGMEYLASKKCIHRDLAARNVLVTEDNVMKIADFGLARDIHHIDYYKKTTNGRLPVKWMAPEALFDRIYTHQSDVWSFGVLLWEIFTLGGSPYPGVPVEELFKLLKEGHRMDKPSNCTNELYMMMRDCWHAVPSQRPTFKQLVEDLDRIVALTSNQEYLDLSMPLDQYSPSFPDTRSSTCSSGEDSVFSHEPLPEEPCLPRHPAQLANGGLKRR
Measured Quantity: phosphorylation enrichment
Give bare numbers.

As a guide, the following entries are already answered.
FSDPSYVKQME [CDC5L_Y464_YF]
0.558
DKATEYSQFMR [MAX_Y70_I71S_YF]
0.449
HQKKPYCHAHN [NRAP_Y53]
0.983

Below are some sequences; for each one, tell me its phosphorylation enrichment.
1. TAPFNYSFIFK [RAB14_Y8_YF]
2. KIFPEYLSNWT [AIFM1_Y347_L344F]
3. DPLLTYWFPPK [LMNA_Y481_R482W]
4. SEPSGYQDNIA [DES_Y363_A360P]
5. SYNNKYGMVAQ [APOB_Y276_K273N]
6. PQAVRYIYTID [DCX_Y103_G100A]
7. GCKNRYDEDKP [THAP1_Y14_K16E]

1: 0.405; 2: 0.811; 3: 8.47; 4: 0.488; 5: 0.41; 6: 0.723; 7: 0.606

###

Record form. Attribute: phosphorylation enrichment. Fill in for each entry.
tested on: c-Abl (mouse); test: phosphorylation enrichment, bacterial display (enrichment ratio); higher = better substrate or ligand; peptides without Tyr show the background
One number for each entry.

Reference set (5 entries):
LPKVSCVKAID [GLRA1_Y307_Y307C]
0.803
IHFAIYFLKFS [ARMC9_Y107_L108F_YF]
0.636
TEIGQYGNGLK [MORC2_Y100_Q96E]
0.556
LPKVSYVKAID [GLRA1_Y307]
0.444
PFGQWYESHFA [RPS8_Y113_R110G_YF]
0.764

Give one value of phosphorylation enrichment per listed sequence.
1. VSSPKYGSDDE [TMCC2_Y473]
2. LGPSDYFGETA [PRKAR1A_Y323_I327T]

1: 0.992; 2: 0.448

Hey, quick one: what's phosphorylation enrichment for each of these?
1. SLIDGYFRLTA [JAK2_Y372_YF]
2. FFLGKYLQEVL [KLB_Y910_YF]
3. ETPSEYLEIVR [TMEM130_Y412]
4. HSFQCYGRNEA [ENTPD3_Y262]
5. VATRWYRSLEL [CDKL5_Y177_P180L]

0.732
0.665
0.652
0.736
0.468

Each sequence below has a recorded value; state its phosphorylation enrichment.
1. AKIDGYIISFR
2. REVVNYVQKRS [RMI1_Y450_N455S]

1: 0.559; 2: 0.519

###

test system: Fer (mouse); experiment: phosphorylation enrichment, bacterial display (enrichment ratio); higher = better substrate or ligand; peptides without Tyr show the background
Returns Met if the recorded phosphorylation enrichment is greater than or equal to 0.5, and Not met otherwise.

ANFTEYVATRW [CDKL5_Y171_YF]
Met
QNTGDYCDLYG [PTPN11_Y62_Y63C]
Met
RGEEPYTKKAL [TTC21B_Y160_K157E]
Met

Record GIVEDYRPRFY [ACVRL1_Y421_P424R] ; criterion: phosphorylation enrichment no lower than 0.5. Met?
Met

Is it the case that LPPGTYPSDFT [UNC5B_Y511_A516T] has phosphorylation enrichment reaching or exceeding 0.5?
Not met

Does phosphorylation enrichment meet or surpass 0.5 for PFTRNYFVWAV [CYBA_Y87_R90W_YF] ?
Met

Determine whether this sequence has phosphorylation enrichment no lower than 0.5: TLNTNYHLPPS [MT-ATP8_Y33_M28T]
Not met

Hello, I need to know if WISNRSLDFSS [PRPH2_Y184_Y184S] has measured phosphorylation enrichment not below 0.5. Thanks!
Met

Would you say TSYSGYRCHRH [NKAPL_Y94_Y96C] shows phosphorylation enrichment at minimum 0.5?
Not met

Tell me whether phosphorylation enrichment is at least 0.5 here: RRKRAYVEIEY [MAK16_Y282_Q277R]
Met
